Cited source: ChEMBL document CHEMBL1817600

# System: A549
# EXPERIMENT_NOTES: Antiproliferative activity against human A549 cells expressing wild type p53 after 72 hrs by MTT assay
# CONDITION_PARAMETERS: A549, 72 h
MEASURED_METRIC: pIC50
Scale: pIC50 equals -log10([C]), with [C] in mol/L.

Ask: State the recorded pIC50 for this entry: COc1ccc(C2=NC(c3ccc(Cl)cc3)C(c3ccc(Cl)cc3)N2C(=O)CCN2CCN(C)CC2)c(OC(C)C)c1 (centres undefined)
Result: 5.50

Ask: State the recorded pIC50 for this entry: COc1ccc(C2=NC(c3ccc(Cl)cc3)C(c3ccc(Cl)cc3)N2C(=O)N2CCN(C(C)=O)CC2)c(OC(C)C)c1 (centres undefined)
Result: 5.63

Ask: State the recorded pIC50 for this entry: COc1ccc(C2=NC(c3ccc(Cl)cc3)C(c3ccc(Cl)cc3)N2C(=O)CCN2CCOCC2)c(OC(C)C)c1 (centres undefined)
Result: 5.42

Next compound, pIC50 to be filled in.
Ask: State the recorded pIC50 for this entry: COc1ccc(C2=NC(c3ccc(Cl)cc3)C(c3ccc(Cl)cc3)N2C(=O)OCCNC(C)=O)c(OC(C)C)c1 (centres undefined)
Result: 5.04
